Here's what we have: AC50 numbers for Sodium-dependent dopamine transporter (Homo sapiens, UniProt Q01959).
property name: AC50

>>> data_value("CNCCC=C1c2ccccc2CCc2ccccc21 [NORTRIPTYLINE]")
"3.2 µM"
>>> data_value("CCCCCCNC(=O)n1cc(F)c(=O)[nH]c1=O [CARMOFUR]")
"> 30 µM"
>>> data_value("C[C@]12CC[C@H](O)CC1=CC[C@@H]1[C@@H]2CC[C@]2(C)C(c3cccnc3)=CC[C@@H]12 [ABIRATERONE]")
"> 30 µM"
>>> data_value("Nc1nc(O)c2ncn(COC(CO)CO)c2n1 [GANCICLOVIR]")
"> 30 µM"
>>> data_value("CN(C)c1cc(CNCC(C)(C)C)c(O)c2c1C[C@H]1C[C@H]3[C@H](N(C)C)C(O)=C(C(N)=O)C(=O)[C@@]3(O)C(O)=C1C2=O [OMADACYCLINE]")
"> 30 µM"
>>> data_value("Cc1cccc(N(C)C(=S)Oc2ccc3ccccc3c2)c1 [TOLNAFTATE]")
"> 10 µM"
>>> data_value("COc1cc2c(Nc3ccc(Br)cc3F)ncnc2cc1OCC1CCN(C)CC1 [VANDETANIB]")
"14 µM"
>>> data_value("CC(C)C[C@H](CN)CC(=O)O [PREGABALIN]")
"> 30 µM"
>>> data_value("Nc1nc2c(c(=O)[nH]1)N(C=O)C(CNc1ccc(C(=O)N[C@@H](CCC(=O)O)C(=O)O)cc1)CN2 (stereo partly specified) [LEUCOVORIN]")
"> 30 µM"
>>> data_value("O=C(Nc1c(Cl)cncc1Cl)c1ccc(OC(F)F)c(OCC2CC2)c1 [ROFLUMILAST]")
"> 30 µM"
>>> data_value("CC[N+]1(C)CCCC(OC(=O)C(O)(c2ccccc2)c2ccccc2)C1 (stereo unspecified) [PIPENZOLATE]")
"> 30 µM"
>>> data_value("CC(C)c1cc2c(cc1S(=O)(=O)O)[C@@]1(C)CCC[C@@](C)(C(=O)O)[C@@H]1CC2 [ECABET]")
"> 30 µM"
>>> data_value("CN1C[C@H](C(=O)N[C@]2(C)O[C@@]3(O)[C@@H]4CCCN4C(=O)[C@H](Cc4ccccc4)N3C2=O)C[C@@H]2c3cccc4[nH]cc(c34)C[C@H]21 [DIHYDROERGOTAMINE]")
"> 30 µM"
>>> data_value("NS(=O)(=O)c1cc2c(cc1C(F)(F)F)NC(Cc1ccccc1)NS2(=O)=O (stereo unspecified) [BENDROFLUMETHIAZIDE]")
"3.2 µM"
>>> data_value("CCc1oc2ccccc2c1C(=O)c1cc(Br)c(O)c(Br)c1 [BENZBROMARONE]")
"26 µM"
>>> data_value("C[C@@H]1C[C@H]2[C@@H]3C[C@H](F)C4=CC(=O)C=C[C@]4(C)[C@@]3(F)[C@@H](O)C[C@]2(C)[C@H]1C(=O)CO [DIFLUCORTOLONE]")
"> 30 µM"

---

Here's what we have: AC50 numbers for Sodium-dependent serotonin transporter (Homo sapiens).
property name: AC50

>>> data_value("CC(=O)/N=c1/sc(S(N)(=O)=O)nn1C [METHAZOLAMIDE]")
"> 10 µM"
>>> data_value("CC(CCc1ccccc1)NC(C)C(O)c1ccc(O)cc1 (centres undefined)")
"> 10 µM"
>>> data_value("CC1(C)C(C=C(Cl)Cl)C1C(=O)OCc1cccc(Oc2ccccc2)c1 (centres undefined)")
"> 10 µM"
>>> data_value("CC(C)N(CCCCOCC(=O)NS(C)(=O)=O)c1cnc(-c2ccccc2)c(-c2ccccc2)n1")
"> 30 µM"
>>> data_value("O=C1Nc2ccc(Cl)cc2C(c2ccccc2)=NC1O (centres undefined)")
"> 10 µM"
>>> data_value("NS(=O)(=O)c1cc(C(=O)O)cc(N2CCCC2)c1Oc1ccccc1 [PIRETANIDE]")
"0.92 µM"
>>> data_value("CCN(CC)CC(=O)Oc1ccc(NC(C)=O)cc1")
"> 30 µM"
>>> data_value("[H]/N=C(\\N/C(=N/[H])NCCCCCCNC(=N)NC(=N)Nc1ccc(Cl)cc1)Nc1ccc(Cl)cc1")
"1 µM"
>>> data_value("COC(=O)N[C@@H](C)CNc1nccc(-c2cn(C(C)C)nc2-c2cc(Cl)cc(NS(C)(=O)=O)c2F)n1")
"> 30 µM"
